Biological target: Grb2 SH2 (UniProt P62993)
Sequence (P62993 whole entry, looked up): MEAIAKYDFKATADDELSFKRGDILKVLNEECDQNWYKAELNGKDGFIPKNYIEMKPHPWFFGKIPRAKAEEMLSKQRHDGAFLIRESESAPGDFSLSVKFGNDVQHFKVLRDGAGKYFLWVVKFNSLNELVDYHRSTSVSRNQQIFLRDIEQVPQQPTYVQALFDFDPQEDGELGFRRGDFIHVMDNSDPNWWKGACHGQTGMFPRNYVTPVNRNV
Test: SH2 binding enrichment of the phosphorylated peptide, bacterial display (enrichment ratio); higher = better substrate or ligand; peptides without Tyr show the background
Below is a list of entries, each paired with its recorded SH2 binding enrichment value.

PRIMARY SEQUENCE: SEASFYKSLNL [NGEF_Y289_YF]
MEASURED METRIC: SH2 binding enrichment
MEASURED VALUE: 0.642
//
PRIMARY SEQUENCE: DVCKNYTEAKD [ALB_Y343_A344T]
MEASURED METRIC: SH2 binding enrichment
MEASURED VALUE: 0.824
//
PRIMARY SEQUENCE: KEDSAYGSQSV [NFKB2_Y868]
MEASURED METRIC: SH2 binding enrichment
MEASURED VALUE: 0.817
//
PRIMARY SEQUENCE: MASISYDFCRV [BST2_Y6_T4I_YF]
MEASURED METRIC: SH2 binding enrichment
MEASURED VALUE: 0.764
//
PRIMARY SEQUENCE: TRSFDYMEGED [FGF7_Y58_G62E_YF]
MEASURED METRIC: SH2 binding enrichment
MEASURED VALUE: 0.911

Next, consider the following sequence.
Query: Can you share its SH2 binding enrichment? I mean this sequence: NHQYDYTFHWT [CSNK1A1_Y294_D297H]
Result: 1.15

* * *

Below is a list of entries, each paired with its recorded phosphorylation enrichment value.
Target: MERTK (UniProt Q12866)
Sequence (Q12866 whole entry, looked up): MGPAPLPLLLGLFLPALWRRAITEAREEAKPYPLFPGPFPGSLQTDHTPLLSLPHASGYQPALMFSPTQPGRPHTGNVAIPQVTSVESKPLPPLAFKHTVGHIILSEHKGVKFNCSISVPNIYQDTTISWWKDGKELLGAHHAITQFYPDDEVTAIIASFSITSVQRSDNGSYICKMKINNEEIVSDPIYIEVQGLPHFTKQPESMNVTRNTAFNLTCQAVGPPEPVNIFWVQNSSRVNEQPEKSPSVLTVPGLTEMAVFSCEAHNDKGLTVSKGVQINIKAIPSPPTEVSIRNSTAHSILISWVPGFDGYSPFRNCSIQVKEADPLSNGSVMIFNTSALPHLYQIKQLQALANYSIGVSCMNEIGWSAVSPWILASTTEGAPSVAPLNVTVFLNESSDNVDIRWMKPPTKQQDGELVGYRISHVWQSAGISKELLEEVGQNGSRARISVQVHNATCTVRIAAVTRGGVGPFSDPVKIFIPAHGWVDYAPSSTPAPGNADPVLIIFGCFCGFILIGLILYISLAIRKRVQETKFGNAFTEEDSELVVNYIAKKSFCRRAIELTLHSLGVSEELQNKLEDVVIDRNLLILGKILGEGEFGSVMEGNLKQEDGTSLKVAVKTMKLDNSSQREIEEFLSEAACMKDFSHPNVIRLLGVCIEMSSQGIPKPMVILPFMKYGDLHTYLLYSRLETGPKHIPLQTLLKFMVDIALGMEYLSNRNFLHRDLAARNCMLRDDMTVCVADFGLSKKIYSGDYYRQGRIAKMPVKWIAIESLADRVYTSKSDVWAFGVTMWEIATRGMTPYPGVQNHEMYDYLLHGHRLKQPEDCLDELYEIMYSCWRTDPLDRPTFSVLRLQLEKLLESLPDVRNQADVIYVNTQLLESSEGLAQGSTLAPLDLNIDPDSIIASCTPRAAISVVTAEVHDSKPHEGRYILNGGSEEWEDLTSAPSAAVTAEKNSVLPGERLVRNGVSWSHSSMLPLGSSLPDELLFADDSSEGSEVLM
Test: phosphorylation enrichment, bacterial display (enrichment ratio); higher = better substrate or ligand; peptides without Tyr show the background
Respond using a number only.

Example cases with answers are listed next.
PRIMARY SEQUENCE: PVKDGYQMAQP [CSF1R_Y873_L868P]
SYSTEM UNDER TEST: MERTK (UniProt Q12866)
phosphorylation enrichment: 0.393
//
PRIMARY SEQUENCE: QRMGTYGVRAA [ICAM2_Y260]
SYSTEM UNDER TEST: MERTK (UniProt Q12866)
phosphorylation enrichment: 0.618
//
PRIMARY SEQUENCE: KSRQIYDAYIM [GRK3_Y109_R104K]
SYSTEM UNDER TEST: MERTK (UniProt Q12866)
phosphorylation enrichment: 6.9

Query: Can you share its phosphorylation enrichment? I mean this sequence: SVVVHYEPPEV [TP53_Y220_P219H]
Result: 0.71

Query: Can you share its phosphorylation enrichment? I mean this sequence: KKFFSYAWPFF [BRDT_Y291_H288Y_YF]
Result: 1.58

* * *

Target: c-Src SH2
Assay: SH2 binding enrichment of the phosphorylated peptide, bacterial display (enrichment ratio); higher = better substrate or ligand; peptides without Tyr show the background
MEASURED METRIC: SH2 binding enrichment
Respond using a number only.

Example cases with answers are listed next.
PRIMARY SEQUENCE: PVRIAYGRPRG [SUGP2_Y985_D986G]
SH2 binding enrichment: 0.364
//
PRIMARY SEQUENCE: CTIIHYNFMCN [TP53_Y234_T231I_YF]
SH2 binding enrichment: 1.23
//
PRIMARY SEQUENCE: KEELAYLKKNH [KRT14_Y248]
SH2 binding enrichment: 0.482
//
PRIMARY SEQUENCE: TNFCLYLRSLE [MTM1_Y71_R69C_YF]
SH2 binding enrichment: 0.525

Query: Can you share its SH2 binding enrichment? I mean this sequence: ASTDYYKRGDF [PDHA1_Y243]
Result: 0.44

Query: Can you share its SH2 binding enrichment? I mean this sequence: VEDPEYAVTQL [STOML2_Y124]
Result: 0.483

Query: Can you share its SH2 binding enrichment? I mean this sequence: DISEPYEVYRI [IRF8_Y107_K108E]
Result: 0.638

* * *

Below is a list of entries, each paired with its recorded phosphorylation enrichment value.
Target: EPHB1 (UniProt P54762)
Sequence (P54762 whole entry, looked up): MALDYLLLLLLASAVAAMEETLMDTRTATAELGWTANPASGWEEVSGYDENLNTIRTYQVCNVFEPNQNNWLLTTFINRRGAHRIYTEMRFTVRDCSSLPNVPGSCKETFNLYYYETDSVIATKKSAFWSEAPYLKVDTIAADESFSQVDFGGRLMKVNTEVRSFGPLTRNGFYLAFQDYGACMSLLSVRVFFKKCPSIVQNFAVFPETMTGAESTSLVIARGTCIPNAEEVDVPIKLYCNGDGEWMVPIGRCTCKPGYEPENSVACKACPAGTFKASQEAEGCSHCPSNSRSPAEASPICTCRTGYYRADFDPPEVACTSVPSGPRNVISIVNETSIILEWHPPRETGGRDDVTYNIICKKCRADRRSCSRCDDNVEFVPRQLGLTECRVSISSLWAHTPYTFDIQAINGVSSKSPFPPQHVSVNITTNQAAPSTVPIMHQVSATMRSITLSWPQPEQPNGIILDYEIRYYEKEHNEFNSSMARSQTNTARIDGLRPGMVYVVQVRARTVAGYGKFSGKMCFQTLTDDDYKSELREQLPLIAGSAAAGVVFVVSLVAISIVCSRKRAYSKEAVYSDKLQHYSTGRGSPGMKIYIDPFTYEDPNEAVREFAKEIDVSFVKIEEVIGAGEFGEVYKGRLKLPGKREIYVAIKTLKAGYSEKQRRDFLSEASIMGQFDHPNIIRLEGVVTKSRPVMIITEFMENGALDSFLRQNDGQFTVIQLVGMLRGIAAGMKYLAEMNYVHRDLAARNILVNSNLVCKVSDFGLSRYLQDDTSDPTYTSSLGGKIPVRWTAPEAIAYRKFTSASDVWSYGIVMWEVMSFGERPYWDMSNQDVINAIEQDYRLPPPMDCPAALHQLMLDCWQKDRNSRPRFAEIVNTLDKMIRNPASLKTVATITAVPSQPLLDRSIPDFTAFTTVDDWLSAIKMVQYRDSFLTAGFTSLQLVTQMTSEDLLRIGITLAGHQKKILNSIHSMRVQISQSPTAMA
Test: phosphorylation enrichment, bacterial display (enrichment ratio); higher = better substrate or ligand; peptides without Tyr show the background
Respond using a number only.

Example cases with answers are listed next.
PRIMARY SEQUENCE: HNLDFYKQTTN [FGFR3_Y648_K650Q_YF]
MEASURED METRIC: phosphorylation enrichment
MEASURED VALUE: 0.623

PRIMARY SEQUENCE: DPASAYADEVK [ETNPPL_Y189_S185P]
MEASURED METRIC: phosphorylation enrichment
MEASURED VALUE: 0.628

PRIMARY SEQUENCE: DISEPYEVFRI [IRF8_Y107_K108E_YF]
MEASURED METRIC: phosphorylation enrichment
MEASURED VALUE: 0.665

PRIMARY SEQUENCE: GDYYRSLAEVA [YWHAG_Y133_Y133S]
MEASURED METRIC: phosphorylation enrichment
MEASURED VALUE: 1.68

PRIMARY SEQUENCE: SEASFYKSLNL [NGEF_Y289_YF]
MEASURED METRIC: phosphorylation enrichment
MEASURED VALUE: 0.589

PRIMARY SEQUENCE: LIDGFYRLTAD [JAK2_Y373_YF]
MEASURED METRIC: phosphorylation enrichment
MEASURED VALUE: 0.747

Query: Can you share its phosphorylation enrichment? I mean this sequence: GFAIVYGTIIL [GPR179_Y460]
Result: 0.644

* * *

Molecular target: EPHB1 (UniProt P54762)
Assay: phosphorylation enrichment, bacterial display (enrichment ratio); higher = better substrate or ligand; peptides without Tyr show the background
Please enter Criterion met where phosphorylation enrichment is greater than or equal to 0.7, and Criterion not met where it is lower.

Solved cases below.
PRIMARY SEQUENCE: HIILLYIFLKN [STXBP1_Y411_R406H]
LABEL: Criterion met

PRIMARY SEQUENCE: RLLVVYPWTER [HBB_Y36_Q40E]
LABEL: Criterion not met

PRIMARY SEQUENCE: RPSELYFSKIG [SMG1_Y2253_YF]
LABEL: Criterion not met

PRIMARY SEQUENCE: DFTEAYNSKIK [CLK1_Y305_P307S_YF]
LABEL: Criterion met

PRIMARY SEQUENCE: IENKLYGTSDP [RET_Y1062_M1064T]
LABEL: Criterion not met

Could you now consider this next sequence?
Query: For this sequence, is measured phosphorylation enrichment 0.7 or higher? REGDKYVSHGA [ASS1_Y113_A111D]
Result: Criterion met

* * *

Below is a list of entries, each paired with its recorded SH2 binding enrichment value.
Target: SHP2-C SH2
Assay: SH2 binding enrichment of the phosphorylated peptide, bacterial display (enrichment ratio); higher = better substrate or ligand; peptides without Tyr show the background
Respond using a number only.

Query: Can you share its SH2 binding enrichment? I mean this sequence: AVRVFYRKCPH [EPHB2_Y194_R199H]
Result: 0.497

* * *

System: Fer (mouse)
Assay: phosphorylation enrichment, bacterial display (enrichment ratio); higher = better substrate or ligand; peptides without Tyr show the background
Categories are defined by ranges of phosphorylation enrichment, namely range A = under 0.5, range B = from 0.5 up to 0.6, range C = 0.6 and over

Solved cases below.
PRIMARY SEQUENCE: PMDTYYDSTRG [DYNC2H1_Y2231]
LABEL: range C

PRIMARY SEQUENCE: GILDVYIFLGP [GAA_Y340]
LABEL: range A

PRIMARY SEQUENCE: TIQIMFGCDVG [HLA-A_Y123_Y123F]
LABEL: range C

PRIMARY SEQUENCE: IVEFAYNDKAV [PUM3_Y259_I264V_YF]
LABEL: range A

PRIMARY SEQUENCE: RLLRGYDQSAY [HLA-C_Y137]
LABEL: range B

Query: Pick a category. Item: ILGRYYETGSI [PAX2_Y73]
Result: range A

Query: Pick a category. Item: YTFTSYYMHWV [IGHV1-46_Y51]
Result: range C

Query: Pick a category. Item: DSDTDYGSGYP [RNASEH2A_Y206_L202S]
Result: range C

Query: Pick a category. Item: PLQHVYKIGGI [EEF1A2_Y254_D252H]
Result: range C

Query: Pick a category. Item: TVLEPYADPYY [ZC3H18_Y367]
Result: range B

Query: Pick a category. Item: KPVDTYYDSTR [DYNC2H1_Y2230_M2227V]
Result: range A

Query: Pick a category. Item: GVPLGYPIKAS [ELN_Y206_P211S]
Result: range A

Query: Pick a category. Item: GSRGKYSSGFH [ATM_Y332_R337H]
Result: range A

* * *

Test system: AncSZ
Experiment: phosphorylation enrichment, bacterial display (enrichment ratio); higher = better substrate or ligand; peptides without Tyr show the background
Please enter fulfilled where phosphorylation enrichment is greater than or equal to 0.9, and not fulfilled where it is lower.

Solved cases below.
PRIMARY SEQUENCE: ERPGVYTNVVE [F11_Y608]
LABEL: not fulfilled

PRIMARY SEQUENCE: TKDTFYKQRMF [GBA_Y451_P454R]
LABEL: not fulfilled

PRIMARY SEQUENCE: GGQVFYNSEYG [FLT4_Y1333]
LABEL: not fulfilled

PRIMARY SEQUENCE: PLDGEYFTLQI [TP53_Y327]
LABEL: fulfilled

Query: For this sequence, is measured phosphorylation enrichment 0.9 or higher? KTSGNYLPVTG [WDR19_Y28_A30P]
Result: not fulfilled

Query: For this sequence, is measured phosphorylation enrichment 0.9 or higher? KNITEYCRHLI [RECQL_Y492_D495H]
Result: not fulfilled

Query: For this sequence, is measured phosphorylation enrichment 0.9 or higher? CTTIHDNYMCN [TP53_Y234_Y234D]
Result: not fulfilled
